Test system: ABL1-phosphorylated
Settings: Compound Concentration (nM):1000;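 further: KINOMEscan scanMAX binding as percent activity remaining versus control; lower means stronger binding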
Given measured Percent Control, output yes if it is greater than or equal to 60% and no if not.

[
  {
    "COMPOUND": "C/C(Nc1ccc(S(N)(=O)=O)cc1)=C1/C(=O)Nc2ccccc21 [GW335962X]",
    "CLASS_LABEL": "yes"
  },
  {
    "COMPOUND": "CCS(=O)(=O)c1ccc(OC)c(Nc2ncc(-c3cccc(F)c3)o2)c1 [GW621970X]",
    "CLASS_LABEL": "no"
  },
  {
    "COMPOUND": "Cl.O=C(Nc1ccc(Oc2ccc3[nH]c(NC(=O)c4ccco4)nc3c2)cc1)Nc1cc(C(F)(F)F)ccc1F [GW683134A]",
    "CLASS_LABEL": "no"
  },
  {
    "COMPOUND": "CCn1c(-c2nonc2N)nc2c(C#CC(C)(C)O)nc(OCCNC)cc21.Cl [GSK949675]",
    "CLASS_LABEL": "yes"
  },
  {
    "COMPOUND": "NS(=O)(=O)c1ccc(N/N=C2\\C(=O)Nc3ccc(Cl)cc32)cc1 [GW280670X]",
    "CLASS_LABEL": "yes"
  }
]

In the following, a different compound is considered.
IN: Tell me whether Percent Control is at least 60% here: COc1ccccc1-c1cc(/C=C2\C(=O)Nc3ncc(Br)cc32)cc(Br)c1O [GW442130X]
OUT: yes

* * *

System: HCK
Settings: Compound Concentration (nM):1000
Measured Percent Control by item
Note: unit % is implicit; provide only the numeric part.

[
  {
    "COMPOUND": "Cl.O=C(O[C@H]1CN[C@H](C#Cc2cc3ncnc(Nc4ccc5c(cnn5Cc5ccccc5)c4)c3s2)C1)N1CCOCC1 [GSK200398A]",
    "DATA_VALUE": 100
  },
  {
    "COMPOUND": "COc1ccc(COc2ccc(Cc3cnc(N)nc3N)cc2OC)cc1 [GW632580X]",
    "DATA_VALUE": 90
  },
  {
    "COMPOUND": "COc1ccc2[nH]c3c4[nH]c5ccc(OC)cc5c4c4c(c3c2c1)C(=O)NC4=O [GW296115X]",
    "DATA_VALUE": 74
  },
  {
    "COMPOUND": "C/C(Nc1ccc(S(N)(=O)=O)cc1)=C1/C(=O)Nc2ccccc21 [GW335962X]",
    "DATA_VALUE": 79
  },
  {
    "COMPOUND": "CN(C)c1cc2c(Nc3ccc4c(cnn4Cc4ccccc4)c3)ncnc2cn1 [GW282974X]",
    "DATA_VALUE": 57
  },
  {
    "COMPOUND": "CN1CCN(C(=O)c2ccc(NC(=O)Nc3ccc(N(C)c4ccnc(Nc5ccc(CS(C)(=O)=O)cc5)n4)cc3)cc2)CC1.Cl [GW830263A]",
    "DATA_VALUE": 100
  },
  {
    "COMPOUND": "COc1cc2ncnc(Nc3ccc4c(cnn4Cc4ccccc4)c3)c2cc1OC.Cl [GW282449A]",
    "DATA_VALUE": 21
  }
]

Now for a further compound.
IN: Request body: readout Percent Control, system HCK, query COc1ccc2cc(-c3c(-c4ccncc4)nc(-c4ccc(S(C)(=O)=O)cc4C)n3C)ccc2c1 . Return the value.
OUT: 72
